Every entry's value here was drawn from PubChem BioAssay AID1159580.

Listing: normalized growth of selected compounds
Experiment: chemical genetic growth profiling, strain panel (AID 1159580);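 note: tested at 20 µM; growth read once vehicle control cultures reached saturation at 30 °C; 1 = growth at the plate median or of vehicle wells; lower values mean less growth of the strain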
Conditions: S. cerevisiae deletion strains, growth OD, locus YGL078C, strain dbp3, hits give low values
Hit rate of the full screen: of about 5,500 compounds, about 2,000 (36%) were called active. Roughly 18% stayed inconclusive and do not appear here. Some of the results follow.
Answer with the value's number alone.

Answered cases to consult:
[in] Determine its reported normalized growth: Nc1nc(=S)c2[nH]cnc2[nH]1
[out] 0.997

[in] Determine its reported normalized growth: COc1ccc(-c2coc3cc(O)ccc3c2=O)c(OC)c1
[out] 0.988

[in] Determine its reported normalized growth: CN1CC(CO)=C[C@@H]2c3cccc4[nH]cc(c34)C[C@H]21
[out] 0.997

[in] Determine its reported normalized growth: COc1ccc(C(=O)CC(=O)O)c2c1C=CC(C)(C)O2
[out] 0.994

[in] Determine its reported normalized growth: O=C1CCC(N2C(=O)c3ccccc3C2=O)C(=O)N1 (configuration not stated)
[out] 0.997

[in] Determine its reported normalized growth: COc1ccccc1-c1coc2cc(O)ccc2c1=O
[out] 1

Could you now consider this next compound?
[in] Determine its reported normalized growth: CC[C@@H](C(=O)C(C)[C@@H](O)[C@H](C)CCc1ccc(C)c(O)c1C(=O)O)C1OC(CC)(C2CC[C@](O)(CC)[C@H](C)O2)C[C@@H]1C (some centres not stated)
[out] 0.998
